Test system: TK-10 renal
Test: NCI-60 one-dose screen, 48 h (100 = growth as untreated, 0 = no growth, -100 = all killed)
Settings: 10 µM unless noted
The panel holds about 83,000 compounds, 20% with a hit somewhere; the sample as a whole holds those more often.
Answer each item with its documented growth.
Numbers only, in %.

# compound, growth (%)
records = [
    ("CCOC1=C(Cl)C(=O)C(OCC)=C(Cl)C1=O", 104),
    ("C=CC1CN2CCC1CC2C(O)c1ccnc2ccc(OC)cc12 (stereo unspecified)", 108),
    ("CC(O)CCC(C)[N+](=O)[O-] (stereo unspecified)", 104),
    ("Oc1ccc(CN(Cc2ccc(C(F)(F)F)cc2)Cc2ccc(O)c3ncccc23)c2cccnc12", 14.7),
    ("COc1cc(-c2c3c(cn2CCN2CCCCC2)-c2oncc2CC3)cc(OC)c1OC", 100),
]

Shift focus to the following entry.
Input: // returns reported growth for input `O=C1C(Cl)=C(SC2=NCCN2)C(=O)c2ccccc21`
Output: 173

----------
Tested on: PC-3 prostate
Test: NCI-60 one-dose screen, 48 h (100 = growth as untreated, 0 = no growth, -100 = all killed)
Settings: 10 µM unless noted
Method: Growth inhibition of the PC-3 human tumor cell line is measured as a screen for anti-cancer activity. Cells are grown in 96 well plates and exposed to the test compound for 48 hours. Compounds are tested at a single concentration, which is 10^-5 M for most compounds. The reported endpoint is percent growth (GI% or GIPRCNT), where numbers from 0 - 100% represent growth inhibition, and numbers from -100% - 0 represent cell death. For example, a value of 40 represents 60% growth inhibition. […]
Compounds without any hit were thinned out: in the full panel of roughly 83,000, 20% have a hit.
metric: growth (%)
Answers are plain numbers, in %.

Reference set (5 entries):
# compound, growth [%]
records = [
    ("CCOC(=O)C1=NN(c2ccccc2)C2=NC(=O)/C(=C\\c3cn(-c4ccccc4)nc3-c3cc4ccccc4o3)C(=O)N12", 88.2),
    ("CCCCN(CCCC)CCCNc1c2c(nc3ccc(Cl)cc13)CCCC2", 95.5),
    ("CCOc1nc(-c2ccccc2)cc2c(O)c(C(=O)N/N=C/c3ccccc3O)[nH]c(=O)c12", 92.8),
    ("O=C(N/N=C/c1cc(Cl)ccc1O)C(=O)N/N=C/c1cc(Cl)ccc1O", 56.1),
    ("Br/C(=N\\Nc1nn[nH]n1)c1ccccc1", 96.1),
]

Hello, I would appreciate it if you could give growth for each entry below.
1. CCOC(=O)C1=C(C(F)(F)F)NC(=S)NC1CN1C(=O)c2ccccc2C1=O (stereo unspecified)
2. CCOC(=O)NC1=NCC(C)(C)S1
3. O=C1OC(c2ccc(-c3ccccc3)cc2)=C/C1=C/c1c2ccccc2cc2ccccc12
4. COc1cc(/C(=C2/O[C@@H]([C@H]3COC(C)(C)O3)[C@H]3OC(C)(C)O[C@@H]23)c2ccc3c(c2)OCO3)cc(OC)c1OC
5. COc1ccc2cnc(N)c(C#Cc3cc(C(=O)Nc4ccc(CN5CCN(C)CC5)c(C(F)(F)F)c4)cnc3C)c2c1
6. Cc1ncc(C(=O)Nc2ccc(CN3CCN(C)CC3)c(C(F)(F)F)c2)cc1C#Cc1c(N)ncc2ccc(F)cc12
7. O=C(/C=C/c1ccc(Br)cc1)c1ccccc1
8. O=C(/C=C/c1ccc(Cl)cc1)c1ccc(Cl)cc1

Output:
90.5
93.6
98.5
82.9
16
-83.6
82
96.8

Provide reported growth for each item, in the same order as listed.
1. O=C(/C=C/c1c[nH]c2ccccc12)c1cc2ccccc2o1
2. O=S(=O)(O)c1ccc2c(c1)Sc1cc(S(=O)(=O)O)ccc1O2

Output:
1. 75.6
2. 99.2

// for each compound below, give its growth
1. CCCCCCNC(=O)Oc1ccc(/C(=C(/C)Cc2ccc(OC)cc2)c2ccc(OCCN3CCCCC3)cc2)cc1
2. CC(=O)Nc1nc(C)c(C(=O)NN)s1
3. O=c1oc2ccc3ccccc3c2cc1-c1ccnc2[nH]c(=S)[nH]c(=O)c12
4. Oc1ccc(CN(Cc2ccc(C(F)(F)F)cc2)Cc2ccc(O)c3ncccc23)c2cccnc12
5. c1ccc2[nH]c(-c3ccc(OCCCCCOc4ccc(-c5nc6ccccc6[nH]5)cc4)cc3)nc2c1

Output:
1: 76.4; 2: 84.4; 3: 93; 4: 12.9; 5: -70

Input: Suppose we examine the compound `O=C(O)c1ccc(Br)nc1` ; what growth value has been reported?
Output: 97.3

----------
Kindly state growth for each of the entries shown.
Tested on: MDA-MB-435 melanoma
Assay: NCI-60 one-dose screen, 48 h (100 = growth as untreated, 0 = no growth, -100 = all killed)
Settings: 10 µM unless noted
About 83,000 compounds went through this panel and 20% of them were active in at least one assay; those are over-represented in the sample as a whole.
Give bare numbers, in %.

# compound, scaleUnit, growth
rows = [
    ("Oc1ccc(N=Nc2ccc(N=Nc3ccccc3)cc2)cc1", "%", 19.6),
    ("O=C1Nc2c(c(=O)n(-c3ccccc3)c3ccccc23)C(c2ccc(Cl)cc2)N1 (stereo not given)", "%", 99.9),
    ("COc1ccc(C2CC(=O)c3c(O)cc(OC4OC(COC5OC(C)C(O)C(O)C5O)C(O)C(O)C4O)cc3O2)cc1O (stereo not given)", "%", 102),
    ("O=C1/C(=N\\c2cc(=O)[nH]n2S(=O)(=O)c2ccccc2)Nc2ccccc21", "%", 108),
    ("O=C(N/N=C/c1ccccc1Cl)c1cccc2ccccc12", "%", 105),
]

For every item below, please supply its growth.
1. Cc1ccc(C(=O)Nc2ccc(CN3CCN(C)CC3)c(C(F)(F)F)c2)cc1C#Cc1cnc(N)c2ccc(C#N)cc12
2. CCCCCCCCCCCCCCCCCC1=NCCN1CS(=O)(=O)O
3. Cc1nnc(-c2cc3c(ccc4ccccc43)oc2=O)c2cn(-c3ccc(Cl)cc3)nc12
4. C/C(CCC(=O)O)=N/Nc1ccc([N+](=O)[O-])cc1
5. CCOC(=O)NC1=NCC(C)(C)S1

Output:
1. 10.8
2. -19.9
3. 107
4. 38.6
5. 100

Give growth for all compounds that follow.
1. COC(=O)c1ccc2[nH]c(O)c(C(=Nc3ccc(N(C)C(=O)CN4CCN(C)CC4)cc3)c3cccc(OC)c3)c2c1
2. COc1cc(N2C(=O)C=CC2=O)ccc1N1C(=O)C=CC1=O

Output:
1: 31.8; 2: 109

----------
System: SK-MEL-5 melanoma
Experiment: NCI-60 one-dose screen, 48 h (100 = growth as untreated, 0 = no growth, -100 = all killed)
Conditions: 10 µM unless noted
This is part of a sample that, as a whole, favours compounds with a hit. Of some 83,000 tested, about 20% had one in any assay.
Quick rule: growth of at least -60% means T, below that means F.

Recorded results for 10 compounds are shown here.
# compound, qualitativeLabel
rows = [
    ("Clc1ccc(N/N=C/c2ccccn2)nc1", "F"),
    ("CC(=O)CCS(=O)c1ccccc1 (stereo unspecified)", "T"),
    ("CC1(c2ccc(Br)cc2)NC(=O)NC1=O (stereo unspecified)", "T"),
    ("COc1ccc(/C=C(/C(=O)N2CCCCC2)c2cc(OC)c(OC)c(OC)c2)cc1", "T"),
    ("CC(=N\\N=C(N)N)/C(=N/N=C(N)N)c1ccccc1", "T"),
    ("C/C(=N\\Nc1ccc(Cl)cn1)c1ccc2ccccc2n1", "T"),
    ("Nc1nc2c(c3cnccc13)C(c1cccc(Br)c1)Cc1cnccc1-2 (stereo unspecified)", "T"),
    ("c1ccc(C(=NNc2nc3ccccc3o2)c2ccccn2)nc1", "T"),
    ("O=C(Nc1ccc(-n2cc(-c3ccncc3)c(-c3ccc(Cl)c(O)c3)n2)cc1)c1cc(Cl)cc(Cl)c1", "F"),
    ("Nc1cc(N)c2nc(-c3ccccc3)c(NCCc3ccc(Cl)c(Cl)c3)nc2c1", "F"),
]

Input: Given `C/C(=C\c1ccc2ccccc2c1)[N+](=O)[O-]` , state whether its growth is at least -60%.
Output: T

----------
Tested on: SK-MEL-5 melanoma
Test: NCI-60 one-dose screen, 48 h
Conditions: 10 µM unless noted
Description: Growth inhibition of the SK-MEL-5 human tumor cell line is measured as a screen for anti-cancer activity. Cells are grown in 96 well plates and exposed to the test compound for 48 hours. Compounds are tested at a single concentration, which is 10^-5 M for most compounds. The reported endpoint is percent growth (GI% or GIPRCNT), where numbers from 0 - 100% represent growth inhibition, and numbers from -100% - 0 represent cell death. For example, a value of 40 represents 60% growth inhibition. […]
About 83,000 compounds went through this panel and 20% of them were active in at least one assay; those are over-represented in the sample as a whole. The source made the active and inactive calls. How the source made its calls: active means growth percent below 10; inactive means the rest.
Pick one and only one: active, inactive

// below: answered compounds
# compound, testedSystem, qualitativeLabel
measured = [
    ("N#Cc1c2cccnc2c2nnc3cc(Cl)c(Cl)cc3n12", "SK-MEL-5 melanoma", "inactive"),
    ("CCCCCCCCCCCCCCCCCCOP(=O)(O)O", "SK-MEL-5 melanoma", "inactive"),
    ("N=C(N)c1ccc(-c2ccc(-c3ccc(F)cc3)s2)cc1", "SK-MEL-5 melanoma", "active"),
]

Input: Returns: the outcome recorded for COC(=O)C1CC(=O)N(C(=O)Nc2ccc(Cl)cc2Cl)C1 (stereo unspecified) in this assay.
Output: inactive

Input: Hi team, can someone confirm the assay call for `Cc1ccc(OCCn2ccc(=O)n(CCOc3ccc(Cl)cc3C(=O)c3cc(C)cc(C)c3)c2=O)cc1` ?
Output: inactive

Input: // param item: `O=C(O)COc1ccc([N+](=O)[O-])cc1Cl` ; yields the recorded call
Output: inactive

Input: Please share the test call associated with `COC(=O)[C@H](Cc1cn(C)cn1)NC(=O)[C@H](CC(=O)OCc1ccccc1)NC(=O)Nc1cc(C(F)(F)F)cc(C(F)(F)F)c1` .
Output: active

Input: How did this test come out for `CC(=O)N(N=O)c1ccc([N+](=O)[O-])cc1Cl` ?
Output: inactive

Input: Just curious, what result did `C[C@H]1C[C@@H](n2cnc3c(N)nccc32)[C@H](O)[C@@H]1O` get here?
Output: inactive

Input: Record request — test call for CC(O)c1cc[cH-]c1.[Fe+2].c1cc[cH-]c1 (stereo unspecified)
Output: inactive

Input: For `O=C(Nc1ccc(Cl)cn1)C1(c2ccccc2)CCCCC1` , which call appears in the assay record?
Output: inactive
